What IC50 was measured for each of the following?
Target: T1, HLA-DR DRB4*0101 (human)
T1 chain 1: not shown
T1 chain 2: not shown
Experiment: radioligand inhibition, purified HLA-DR
Details: remark: other sources report otherwise
// note: answer is a bare numeric in nM

Query :: Consider the binder HNQVRQVPLQRLRIV [Her/neu.88] and give its recorded IC50.
Result :: 18

Query :: Provide one value: measured IC50 of CHLFYNEQQEARGVH [Peptide 9019.0023]
Result :: 5310

Query :: Specify measured IC50 for DNSIRPEELLQMELL [Cyclin D1.129] .
Result :: 87

Query :: Give me measured IC50, please, for this binder: AKGLQSLPTHDPSPL [Peptide 9019.0098]
Result :: 572
